Test system: Microsporum audounii IFO 6074
Test: antimicrobial activity, MIC
Format: cell-based
Conditions: Microsporum, IFO6074, Microsporum audounii IFO 6074; read-out: MIC
Recorded MIC for the following compounds
parameter: MIC

>>> obs_value("CCCCOc1ccccc1C(=C(Br)Br)n1ccnc1")
"< 0.2 µg/mL"
>>> obs_value("CCCCCOc1ccccc1C(=CSCC)n1ccnc1 (single isomer, unassigned)")
"< 0.2 µg/mL"
>>> obs_value("CCCCOc1ccccc1C(=CSCc1ccccc1)n1ccnc1 (single isomer, unassigned)")
"< 0.2 µg/mL"

###

Recorded MIC for the following compounds
Tested on: Aspergillus niger ATCC 9642
Test: antimicrobial activity, MIC
Assay type: cell-based
Settings: Aspergillus niger ATCC 9642
parameter: MIC (µg/mL)

>>> obs_value("CCCOc1ccccc1C(=CSCc1ccccc1)n1ccnc1 (single isomer, unassigned) [Compound 3]")
0.39
>>> obs_value("CCCOc1ccccc1C(=CSc1ccccc1)n1ccnc1 (single isomer, unassigned) [Compound 64]")
12.5
>>> obs_value("CCCOc1ccccc1C(=CSCc1ccccc1)n1ccnc1 (single isomer, unassigned) [Compound 4]")
1.56

###

Recorded MIC for the following molecules
Tested on: Gibberella fujikuroi IAM 8046
Assay: antimicrobial activity, MIC
Type: cell-based
Conditions: Fusarium fujikuroi, IAM8046, Gibberella fujikuroi IAM 8046; read-out: MIC
parameter: MIC

>>> obs_value("CCCCCOc1ccccc1C(=CSCC)n1ccnc1 (single isomer, unassigned)")
"< 0.2 µg/mL"
>>> obs_value("CCCCCCOc1ccccc1C(=CSC)n1ccnc1 (single isomer, unassigned)")
"< 0.2 µg/mL"
>>> obs_value("CCCCOc1ccccc1C(=C(Br)Br)n1ccnc1")
"> 100 µg/mL"
